List of TGI values.
tested on: HOP-18 NSCLC; experiment: NCI tumour cell line growth inhibition, 48 h

Completed entries (count: 3):
Molecule: COC(=O)C1=C(O)C(O)=C(C(=O)OC)C1
Target or test system: HOP-18 NSCLC
Value: > 100 µM
//
Molecule: CC(c1cccc2ccccc12)/[N+]([O-])=C/c1ccccc1 (centres undefined)
Target or test system: HOP-18 NSCLC
Value: > 100 µM
//
Molecule: CCCCc1c2c(nc3c1CCC/C3=C\c1ccccc1)C(=O)C(CN(C)C)CC2 (centres undefined)
Target or test system: HOP-18 NSCLC
Value: 38.5 µM

Could you now consider this next molecule?
stdin: Endpoint output: TGI of CCOC(=O)C(C)c1cc(C2(C)OCCO2)c(C)o1 (centres undefined) . Value?
stdout: > 100 µM

----------
List of TGI values.
tested on: KM20L2 colon; assay: NCI tumour cell line growth inhibition, 48 h

Completed entries (count: 10):
Molecule: Cc1cc2oc(=O)[nH]c(=S)c2c(C)c1C
Value: > 100 µM

Molecule: Cc1cc(C)nc(Nc2nc3ccc([N+](=O)[O-])cc3[nH]2)n1
Value: > 100 µM

Molecule: CCOC(CN=c1nc(N(C)C)ss1)OCC
Value: > 72.5 µM

Molecule: CCC1(N=[N+]=[N-])C(=O)Nc2cc(C)ccc2C1=O (configuration not stated)
Value: > 100 µM

Molecule: CC(O)C(O)C(N)CC=O (configuration not stated)
Value: > 500 µM

Molecule: COC(=O)C1=C(O)C(O)=C(C(=O)OC)C1
Value: > 100 µM

Molecule: COC(=O)C1=CC[C@@H]2C(C(=O)O)=CO[C@@H](OC3OC(CO)C(O)C(O)C3O)[C@H]12 (some centres not stated)
Value: > 300 µM

Molecule: Cc1cc2c(s1)C(=O)c1sccc1C2=O
Value: 4.75 µM

Molecule: O=c1cc2ccccc2nn1-c1ccccc1Cl
Value: > 100 µM

Molecule: CCOC(=O)C(=O)Nc1c(N(CC)CC)n2ccccc2nc1=O
Value: > 100 µM

stdin: Endpoint output: TGI of `CCN(CC)Cc1cc(Nc2c3ccccc3nc3c2[nH]c2ccccc23)ccc1O` . Value?
stdout: 2.41 µM

stdin: Also need `C[C@]12CCC(=O)C(O)=C1CC[C@@H]1[C@@H]2CC[C@]2(C)C(=O)CC[C@@H]12` , thanks.
stdout: > 100 µM

----------
List of GI50 values.
tested on: MDA-MB-231 breast; assay: NCI tumour cell line growth inhibition, 48 h

Completed entries (count: 2):
Compound smiles: COc1cc(/C=C/C(=O)c2ccc(Cl)cc2)ccc1OS(=O)(=O)c1ccc(C)cc1
Target or test system: MDA-MB-231 breast
GI50: 9.02 µM
//
Compound smiles: C[N+](C)(CCCCCC[N+](C)(C)CCCN1C(=O)c2cc3ccccc3cc2C1=O)CCCN1C(=O)c2ccccc2C1=O
Target or test system: MDA-MB-231 breast
GI50: > 37.5 µM

Could you now consider this next molecule?
stdin: Endpoint output: GI50 of `COc1ccc(-c2nc(-c3ccccc3)c(-c3ccccc3)n2C2CC2)cc1OC1CCCC1` . Value?
stdout: > 165 µM

----------
test system: NCI-H460 lung; assay: NCI tumour cell line growth inhibition, 48 h
List of TGI values.

Compound: N#CC12C3C4CC5C6C4C1C6C(O)(C53)N2Cc1ccccc1 (stereo unspecified)
Value: > 100 µM

Compound: CC1(O)/C(=N/O)CC2CC1C2(C)C (stereo unspecified)
Value: > 100 µM

Compound: CC(=O)CCC[C@@H](C)[C@@H]1O[C@H]([C@@]2(C)CCC(=O)O2)C[C@H]2C(CSc3ccccc3)C(=O)O[C@@H]12 (stereo partly specified)
Value: > 57.5 µM

Compound: N=C1C(=N)c2ccccc2-c2ccccc21
Value: 2.88 µM

Compound: C[Si](C)(C)OC1c2[nH]c3ccccc3c2CN2C(=O)CCC12 (stereo unspecified)
Value: > 100 µM

stdin: Endpoint output: TGI of CC1OC(O[C@H]2CC[C@]3(C)[C@H]4CC=C5[C@@H]6[C@@H](C)[C@H](C)CC[C@]6(C(=O)O)CC[C@@]5(C(=O)O)[C@]4(C)CC[C@H]3C2(C)C)C(O)C(O)C1O (stereo partly specified) . Value?
stdout: > 75 µM

stdin: Also need `CC(C)(C)[C@H]1CO[C@]2(C)[C@@H]3C[C@@H]3C(=O)N12` , thanks.
stdout: > 100 µM

stdin: Also need `COC(=O)c1c(C(=O)OC)c2cc(C(=O)c3ccccc3)ccn2c1Cl` , thanks.
stdout: > 100 µM

stdin: Also need CCOC(=O)CCC(NC(=O)c1ccc(Nc2nc3cc(C(F)(F)F)ccc3nc2-c2ccccc2)cc1)C(=O)OCC (stereo unspecified) , thanks.
stdout: > 100 µM

stdin: Also need `CC1=Cc2cc3[n-]c(cc4nc(cc5[n-]c(cc1n2)cc5C)C(C)=C4CCC(=O)O)c(CCC(=O)O)c3C.[Pd+2]` , thanks.
stdout: 59.2 µM

stdin: Also need `O=c1cc(-c2ccccc2)nc2n1CCN2Cc1ccccc1` , thanks.
stdout: > 100 µM
